# measurement.notes: Solubility of the compound
# Assay type: physicochemical
# test.conditions: read-out: solubility

[
  {
    "cpd.smiles": "CC(C)n1c(=O)c2ccccc2n1Cc1cn(-c2ccc3nc(N4CCOCC4)sc3c2)nn1",
    "solubility": "> 40 µM"
  }
]

// provenance: ChEMBL document CHEMBL2069307
